The values you see were collected from ChEMBL document CHEMBL1146646.

molecular target: Prostaglandin D2 receptor (Homo sapiens, UniProt Q13258); experiment: Binding affinity against human recombinant […] D2 was determined using radioligand competition binding assay
PROPERTY LABEL: Ki (nM)

compound=COC(=O)c1ccc(CSc2nc3ccccc3n2Cc2ccc(Cl)cc2)cc1 tested_target="Prostaglandin D2 receptor (Homo sapiens, UniProt Q13258)" units_text=nM experimental_value=73

[A] COC(=O)c1ccc(Nc2nc3ccccc3n2Cc2ccc(Cl)cc2)cc1
[B] COC(=O)c1ccc(C[S+]([O-])c2nc3ccccc3n2Cc2ccc(Cl)cc2)cc1 (configuration not stated)
Select one: A or B . Criterion: greater recorded Ki. Let me know the label of the one you choose. A

[I] COC(=O)c1cccc(CSc2nc3ccccc3n2Cc2ccc(Cl)cc2)c1
[II] COC(=O)c1ccc(Cc2nc3ccccc3n2Cc2ccc(Cl)cc2)cc1
Sorting by Ki in descending order, would I or II appear first? API: response body contains the label of the selected item. II
(II: 6200 nM, I: 1100 nM)

[1] NS(=O)(=O)c1ccc(CSc2nc3ccccc3n2Cc2ccc(Cl)cc2)cc1
[2] O=C(O)c1ccc(CSc2nc3ccccc3n2Cc2ccc(Cl)cc2)cc1
I'm curious whether 1 or 2 has the smaller Ki number. Which is it? Reply briefly: the label of your chosen item. 1
(1: 1200 nM, 2: 3500 nM)

[a] COC(=O)c1ccc(CNc2nc3ccccc3n2Cc2ccc(Cl)cc2)cc1
[b] N#Cc1ccc(CSc2nc3ccccc3n2Cc2ccc(Cl)cc2)cc1
Please indicate which item has the smaller measured Ki: a versus b Respond with the label that goes with your answer. a

====

Biological target: Prostaglandin D2 receptor (Homo sapiens)
Sequence (Q13258 whole entry): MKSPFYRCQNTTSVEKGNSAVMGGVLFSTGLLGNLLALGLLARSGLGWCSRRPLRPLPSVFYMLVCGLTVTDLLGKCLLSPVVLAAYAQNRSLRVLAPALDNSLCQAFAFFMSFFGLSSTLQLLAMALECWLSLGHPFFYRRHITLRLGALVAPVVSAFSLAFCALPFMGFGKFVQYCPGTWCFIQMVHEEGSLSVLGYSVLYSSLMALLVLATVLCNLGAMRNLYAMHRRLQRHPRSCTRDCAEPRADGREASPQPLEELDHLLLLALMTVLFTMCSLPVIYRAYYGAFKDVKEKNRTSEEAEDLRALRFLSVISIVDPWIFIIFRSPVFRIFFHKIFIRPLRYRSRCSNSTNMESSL
Experiment: Binding affinity against human recombinant […] D2 was determined using radioligand competition binding assay
# Ki annotations
Give your result in µM as a bare value.

mol_smiles=Cc1noc(-c2ccc(CSc3nc4ccccc4n3Cc3ccc(Cl)cc3)cc2)n1 experimental_value=0.31

Query compound follows.
Ki reading for COC(=O)c1ccc(CCc2nc3ccccc3n2Cc2ccc(Cl)cc2)cc1 : 0.024

====

target: Thromboxane A2 receptor (Homo sapiens, UniProt P21731); test: Binding affinity against human recombinant Thromboxane A2 receptor was determined using radioligand competition binding assay
PROPERTY LABEL: Ki (µM)

# example entries with known answers
molecule=COC(=O)c1ccc(Cc2nc3ccccc3n2Cc2ccc(Cl)cc2)cc1 tested_target="Thromboxane A2 receptor (Homo sapiens, UniProt P21731)" property_label=Ki experimental_value=4
molecule=COC(=O)c1ccc(CNc2nc3ccccc3n2Cc2ccc(Cl)cc2)cc1 tested_target="Thromboxane A2 receptor (Homo sapiens, UniProt P21731)" property_label=Ki experimental_value=6
molecule=CC(=O)c1ccc(CSc2nc3ccccc3n2Cc2ccc(Cl)cc2)cc1 tested_target="Thromboxane A2 receptor (Homo sapiens, UniProt P21731)" property_label=Ki experimental_value=3.8
molecule=COC(=O)c1ccc(Nc2nc3ccccc3n2Cc2ccc(Cl)cc2)cc1 tested_target="Thromboxane A2 receptor (Homo sapiens, UniProt P21731)" property_label=Ki experimental_value=0.9
molecule=COC(=O)c1ccc(CCc2nc3ccccc3n2Cc2ccc(Cl)cc2)cc1 tested_target="Thromboxane A2 receptor (Homo sapiens, UniProt P21731)" property_label=Ki experimental_value=2.2

[A] COC(=O)Cc1ccc(CSc2nc3ccccc3n2Cc2ccc(Cl)cc2)cc1
[B] COC(=O)c1cccc(CSc2nc3ccccc3n2Cc2ccc(Cl)cc2)c1
Please indicate which entry, A or B , has the lower recorded Ki value. Write down the label of the entry you select. A

[A] Clc1ccc(Cn2c(SCc3ccccc3)nc3ccccc32)cc1
[B] CS(=O)(=O)c1ccc(CSc2nc3ccccc3n2Cc2ccc(Cl)cc2)cc1
[C] COC(=O)c1ccc(-c2nc3ccccc3n2Cc2ccc(Cl)cc2)cc1
[D] CC(C)(O)c1ccc(CSc2nc3ccccc3n2Cc2ccc(Cl)cc2)cc1
[E] N#Cc1ccc(CSc2nc3ccccc3n2Cc2ccc(Cl)cc2)cc1
# rank_down: sort by Ki, max first Please respond with the labels ordered as the question requires. D, C, A, B, E
(D: 11.9 µM, C: 7 µM, A: 4.2 µM, B: 2 µM, E: 0.95 µM)

====

Target: Prostaglandin D2 receptor (Homo sapiens)
Sequence (Q13258 whole entry): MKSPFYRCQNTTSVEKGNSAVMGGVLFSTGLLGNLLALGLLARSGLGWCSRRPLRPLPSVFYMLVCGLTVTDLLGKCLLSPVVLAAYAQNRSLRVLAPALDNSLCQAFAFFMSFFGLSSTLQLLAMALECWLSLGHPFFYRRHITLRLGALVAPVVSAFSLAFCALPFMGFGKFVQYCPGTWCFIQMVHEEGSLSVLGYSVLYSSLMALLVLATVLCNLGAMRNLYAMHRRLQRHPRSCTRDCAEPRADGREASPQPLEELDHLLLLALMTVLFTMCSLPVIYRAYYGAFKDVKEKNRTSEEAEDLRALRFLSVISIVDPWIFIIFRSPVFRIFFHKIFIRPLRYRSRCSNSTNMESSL
Assay: Binding affinity against human recombinant […] D2 was determined using radioligand competition binding assay
PROPERTY LABEL: Ki (nM)

molecule=COC(=O)c1ccc(/C=C/c2nc3ccccc3n2Cc2ccc(Cl)cc2)cc1 tested_target="Prostaglandin D2 receptor (Homo sapiens)" experimental_value=38

[a] COC(=O)c1ccc(-c2nc3ccccc3n2Cc2ccc(Cl)cc2)cc1
[b] COC(=O)Cc1ccc(CSc2nc3ccccc3n2Cc2ccc(Cl)cc2)cc1
[c] CN(C)C(=O)c1ccc(CSc2nc3ccccc3n2Cc2ccc(Cl)cc2)cc1
[d] FC(F)(F)c1ccc(CSc2nc3ccccc3n2Cc2ccc(Cl)cc2)cc1
Ascending by Ki, please. Please reply with the labels ordered as requested. Many thanks. b, c, d, a
(b: 330 nM, c: 800 nM, d: 2600 nM, a: 8000 nM)

[1] CC(=O)c1ccc(CSc2nc3ccccc3n2Cc2ccc(Cl)cc2)cc1
[2] Clc1ccc(Cn2c(SCc3ccccc3)nc3ccccc32)cc1
Compare the recorded Ki of 1 and 2 ; state which is larger. Return value: the label identifying the chosen record. 2

[1] CS(=O)(=O)c1ccc(CSc2nc3ccccc3n2Cc2ccc(Cl)cc2)cc1
[2] CC(C)(O)c1ccc(CSc2nc3ccccc3n2Cc2ccc(Cl)cc2)cc1
From the items above, decide which of 1 and 2 has the lower Ki reading. Label of pick, please. 2

====

Target: Thromboxane A2 receptor (Homo sapiens, UniProt P21731)
Sequence (P21731 whole entry): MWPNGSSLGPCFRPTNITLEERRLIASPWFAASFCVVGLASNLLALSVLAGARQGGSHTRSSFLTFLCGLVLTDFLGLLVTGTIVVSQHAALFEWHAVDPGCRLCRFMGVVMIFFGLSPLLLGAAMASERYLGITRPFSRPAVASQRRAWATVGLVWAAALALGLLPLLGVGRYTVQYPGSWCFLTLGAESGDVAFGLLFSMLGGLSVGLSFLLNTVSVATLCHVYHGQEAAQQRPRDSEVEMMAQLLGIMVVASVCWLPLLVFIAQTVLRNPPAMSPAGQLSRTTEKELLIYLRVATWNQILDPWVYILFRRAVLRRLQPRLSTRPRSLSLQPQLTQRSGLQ
Assay: Binding affinity against human recombinant Thromboxane A2 receptor was determined using radioligand competition binding assay
pKi: −log10 of the molar value.
PROPERTY LABEL: pKi

As a guide, the following entries are already answered.
molecule=O=C(O)c1ccc(CSc2nc3ccccc3n2Cc2ccc(Cl)cc2)cc1 experimental_value=5.33
molecule=CN(C)C(=O)c1ccc(CSc2nc3ccccc3n2Cc2ccc(Cl)cc2)cc1 experimental_value=5.70
molecule=Fc1ccc(CSc2nc3ccccc3n2Cc2ccc(Cl)cc2)cc1 experimental_value=5.21

[1] COC(=O)c1ccc(C[S+]([O-])c2nc3ccccc3n2Cc2ccc(Cl)cc2)cc1 (stereo not drawn)
[2] CC(O)c1ccc(CSc2nc3ccccc3n2Cc2ccc(Cl)cc2)cc1 (stereo not drawn)
[3] COC(=O)c1ccc(CSc2nc3ccccc3n2Cc2ccc(Cl)cc2)cc1
Hey, quick one: sort these by pKi, low to high? Sort the labels as requested; that list is your answer. 3, 1, 2

====

biological target: Prostaglandin D2 receptor (Homo sapiens, UniProt Q13258); test: Binding affinity against human recombinant […] D2 was determined using radioligand competition binding assay
PROPERTY LABEL: Ki (nM)

molecule=Cc1nc(-c2ccc(CSc3nc4ccccc4n3Cc3ccc(Cl)cc3)cc2)no1 experimental_value=96

[A] CC(O)c1ccc(CSc2nc3ccccc3n2Cc2ccc(Cl)cc2)cc1 (centres undefined)
[B] CSc1ccc(CSc2nc3ccccc3n2Cc2ccc(Cl)cc2)cc1
Among A and B , whose measured Ki is the smaller figure? Mark your selection by writing its label. A
(A: 270 nM, B: 550 nM)
